Below is a list of entries, each paired with its recorded microsomal CLint value.
experiment: Metabolic stability in mouse liver microsomes assessed as intrinsic clearance incubated for 60 mins in presence of NADPH; assay type: ADME, Microsome; details: read-out: CLH
The figure you give is taken to be in µL/min/mg; do not add the unit.

Prompt: Fill in: microsomal CLint of COc1c(-c2ccc(F)cc2F)nc2ccc(N(C)Cc3ccccc3)nn12 is ___
Completion: 215

Prompt: Moving on to COc1c(-c2ccccc2F)nc2ccc(N(C)Cc3ccccc3)nn12
Completion: 405

* * *

experiment: Kinetic solubility of compound in DMSO at pH 2 incubated for 30 mins by laser nephelometry; assay type: physicochemical; details: read-out: Kinetic_solubility
Below is a list of entries, each paired with its recorded solubility kinetic at 0.5 h value.
The figure you give is taken to be in µg/mL; do not add the unit.

{"columns": ["SMILES_INPUT", "solubility kinetic at 0.5 h [µg/mL]"],
 "data": [
  ["COc1cccc(CSc2ccc3nc(-c4ccc(F)cc4)c(OC)n3n2)c1", 1.6],
  ["COc1c(-c2ccc(F)cc2F)nc2ccc(N(C)Cc3ccccc3)nn12", 25],
  ["COc1cccc(CSc2ccc3nc(-c4ccccc4)c(OC)n3n2)c1", 3.1]
]}

// below: solubility kinetic at 0.5 h requested for another compound
Prompt: Fill in: solubility kinetic at 0.5 h of COc1c(-c2ccccc2F)nc2ccc(N(C)Cc3ccccc3)nn12 is ___
Completion: 25

* * *

Below is a list of entries, each paired with its recorded logD value.
test: Octanol-water distribution coefficient, logD of the compound at pH 7.4 by HPLC analysis; format: physicochemical
// no unit, no text: just the number

Consider the following illustrative entries.
{"columns": ["SMILES_INPUT", "logD"],
 "data": [
  ["COc1cccc(CSc2ccc3nc(-c4ccc(F)cc4)c(OC)n3n2)c1", 4.9],
  ["COc1cccc(CSc2ccc3nc(-c4ccccc4)c(OC)n3n2)c1", 4.8],
  ["COc1c(-c2ccccc2F)nc2ccc(N(C)Cc3ccccc3)nn12", 4.5]
]}

Prompt: Fill in: logD of COc1c(-c2ccc(F)cc2F)nc2ccc(N(C)Cc3ccccc3)nn12 is ___
Completion: 4.6

* * *

Below is a list of entries, each paired with its recorded half-life value.
test: Metabolic stability in mouse liver microsomes assessed as half life incubated for 60 mins in presence of NADPH; assay type: ADME, Microsome

{"columns": ["SMILES_INPUT", "half-life"],
 "data": [
  ["COc1c(-c2ccc(F)cc2F)nc2ccc(N(C)Cc3ccccc3)nn12", "8 min"],
  ["COc1c(-c2ccccc2F)nc2ccc(N(C)Cc3ccccc3)nn12", "4 min"],
  ["COc1cccc(CSc2ccc3nc(-c4ccc(F)cc4)c(OC)n3n2)c1", "< 2 min"]
]}

// below: half-life requested for another compound
Prompt: Fill in: half-life of COc1cccc(CSc2ccc3nc(-c4ccccc4)c(OC)n3n2)c1 is ___
Completion: < 2 min

* * *

assay: Kinetic solubility of compound in DMSO at pH 6.5 incubated for 30 mins by laser nephelometry; format: physicochemical; settings: read-out: Kinetic_solubility
PARAMETER: solubility kinetic at 0.5 h

Consider the following illustrative entries.
{"columns": ["SMILES_INPUT", "solubility kinetic at 0.5 h"],
 "data": [
  ["COc1cccc(CSc2ccc3nc(-c4ccc(F)cc4)c(OC)n3n2)c1", "< 1.6 µg/mL"],
  ["COc1c(-c2ccccc2F)nc2ccc(N(C)Cc3ccccc3)nn12", "< 1.6 µg/mL"],
  ["COc1cccc(CSc2ccc3nc(-c4ccccc4)c(OC)n3n2)c1", "< 1.6 µg/mL"]
]}

// below: solubility kinetic at 0.5 h requested for another compound
Prompt: Fill in: solubility kinetic at 0.5 h of COc1c(-c2ccc(F)cc2F)nc2ccc(N(C)Cc3ccccc3)nn12 is ___
Completion: 1.6 µg/mL
